Attribute: CC50
# Test system: NCI-H460
The number alone won't do; follow it with the unit.

*Q* Under NCI-H460, report CC50 for C=C1C(=O)O[C@H]2[C@H]1CC/C(COC(=O)CCC(=O)NCCCCCCCCNC(=O)CCC(=O)OC/C1=C/CC[C@@]3(C)O[C@H]3[C@H]3OC(=O)C(=C)[C@@H]3CC1)=C\CC[C@@]1(C)O[C@@H]21 [JVM 2-87]
*A* 66.2 µM

Here is the next item to consider.
*Q* Send back NCI-H460 CC50 of C=C1C(=O)O[C@H]2[C@H]1CC/C(COC(=O)CCC(=O)NCCCCCCCCCNC(=O)CCC(=O)OC/C1=C/CC[C@@]3(C)O[C@H]3[C@H]3OC(=O)C(=C)[C@@H]3CC1)=C\CC[C@@]1(C)O[C@@H]21 [JVM 2-92] only.
*A* 25.7 µM

###

# System: SNB-19
# measurement_setup: read-out: LC50; SNB-19
outcome_measure: CC50 (µM)
Write the answer as a number in µM, unit excluded.

*Q* Quick one: give measured CC50 for C=C1C(=O)O[C@H]2[C@H]1CC/C(COC(=O)NCCCCCNC(=O)OC/C1=C/CC[C@@]3(C)O[C@H]3[C@H]3OC(=O)C(=C)[C@@H]3CC1)=C\CC[C@@]1(C)O[C@@H]21
*A* 92.5

###

# Test system: HCC-2998
# assay_comment: NCI 60 cell line five dose, Colon Cancer
# measurement_setup: read-out: LC50, molar
outcome_measure: CC50 (µM)
Write the answer as a number in µM, unit excluded.

*Q* Report CC50, nothing else, for this compound: C=C1C(=O)O[C@H]2[C@H]1CC/C(COC(=O)NCCCCCCCCNC(=O)OC/C1=C/CC[C@@]3(C)O[C@H]3[C@H]3OC(=O)C(=C)[C@@H]3CC1)=C\CC[C@@]1(C)O[C@@H]21
*A* 5.28

###

# System: RPMI-8226
# assay_comment: NCI 60 cell line five dose, Leukemia
outcome_measure: GI50 (nM)
Respond numerically; units are nM and should not be typed.

Answered examples (3):
*Q* Identify GI50 associated with the molecule C=C1C(=O)O[C@H]2[C@H]1CC/C(COC(=O)NCCCCNC(=O)OC/C1=C/CC[C@@]3(C)O[C@H]3[C@H]3OC(=O)C(=C)[C@@H]3CC1)=C\CC[C@@]1(C)O[C@@H]21 [JVM 3-54]
*A* 547

*Q* Output GI50 of C=C1C(=O)O[C@H]2[C@H]1CC/C(COC(=O)CCC(=O)NCCCCCCCCNC(=O)CCC(=O)OC/C1=C/CC[C@@]3(C)O[C@H]3[C@H]3OC(=O)C(=C)[C@@H]3CC1)=C\CC[C@@]1(C)O[C@@H]21 [JVM 2-87]
*A* 1670

*Q* Entry C=C1C(=O)O[C@H]2[C@H]1CC/C(COC(=O)NCCCCCNC(=O)OC/C1=C/CC[C@@]3(C)O[C@H]3[C@H]3OC(=O)C(=C)[C@@H]3CC1)=C\CC[C@@]1(C)O[C@@H]21 [JVM 2-76] needs its GI50 filled in; supply it.
*A* 780

Next up:
*Q* Determine from records and report GI50 for C=C1C(=O)O[C@H]2[C@H]1CC/C(COC(=O)CCC(=O)NCCCCCCCCCNC(=O)CCC(=O)OC/C1=C/CC[C@@]3(C)O[C@H]3[C@H]3OC(=O)C(=C)[C@@H]3CC1)=C\CC[C@@]1(C)O[C@@H]21 [JVM 2-92]
*A* 500
